assay.target: human BAFF (UniProt Q9Y275 82-285)
Sequence (Q9Y275 82-285): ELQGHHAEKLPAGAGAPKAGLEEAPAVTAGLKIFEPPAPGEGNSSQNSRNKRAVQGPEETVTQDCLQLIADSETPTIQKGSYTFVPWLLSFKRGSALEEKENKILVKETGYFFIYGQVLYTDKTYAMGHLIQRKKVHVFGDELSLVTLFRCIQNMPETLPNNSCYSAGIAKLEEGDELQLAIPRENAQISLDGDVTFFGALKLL
protocol.text: competitive SPR
metric: pIC50
Numbers only, as −log10 of the molar value.

Name the recorded pIC50 for GSPWSLSCRKEQGKFYDHLLRDCISCASICGQHPKQCAYFCENKLR (receptor) [TACI_d2 (second cysteine-rich domain, CRD2, residues 68-109 of human TACI)] .
8.40
